Measured Sample B (Probe) Signal accompanies every entry in the list below.
- SYSTEM TESTED: native human ESRRG protein (Homo sapiens, UniProt P62508)
- METHOD: peptide microarray screening for ESRRG binding (Iteration 1 and 2)
- TEST PARAMETERS: Iteration 1 primary screen; fluorescence intensity units

Query: Consider the substance Ac-IKQNHNNS-NH2 (C-terminus assumed) and give its measured Sample B (Probe) Signal.
Reply: 793.75

Query: Same question, `AANYLLLL` this time
Reply: 3,763.81

Query: Now the substance `ANNVSLLH`
Reply: 1,818.72

----------
- SYSTEM TESTED: native human ESRRG protein (Homo sapiens)
- Sequence (P62508 1-458): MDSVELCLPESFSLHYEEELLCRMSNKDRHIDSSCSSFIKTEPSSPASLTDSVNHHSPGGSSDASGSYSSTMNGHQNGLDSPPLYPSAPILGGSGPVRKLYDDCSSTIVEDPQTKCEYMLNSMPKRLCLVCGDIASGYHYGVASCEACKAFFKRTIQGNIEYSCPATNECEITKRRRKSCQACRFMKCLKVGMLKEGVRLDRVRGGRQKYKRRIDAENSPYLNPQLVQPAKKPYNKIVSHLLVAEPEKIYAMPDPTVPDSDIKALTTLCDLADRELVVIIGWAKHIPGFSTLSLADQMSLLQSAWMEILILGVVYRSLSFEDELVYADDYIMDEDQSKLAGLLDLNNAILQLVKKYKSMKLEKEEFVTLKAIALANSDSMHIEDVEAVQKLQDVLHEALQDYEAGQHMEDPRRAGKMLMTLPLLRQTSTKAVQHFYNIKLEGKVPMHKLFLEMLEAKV
- METHOD: peptide microarray screening for ESRRG binding (Iteration 1 and 2)
- TEST PARAMETERS: Iteration 2 iterative screen; fluorescence intensity units
ENDPOINT NAME: Sample A (Bkgd) Signal

> print(dat)
                              substance                             system.tested           endpoint.name  value.reported
1                              NFNYLLPH  native human ESRRG protein (Homo sapiens)  Sample A (Bkgd) Signal          470.56
2  Ac-LYLLKHHP-NH2 (C-terminus assumed)  native human ESRRG protein (Homo sapiens)  Sample A (Bkgd) Signal          304.92
3                              MYKLKQDN  native human ESRRG protein (Homo sapiens)  Sample A (Bkgd) Signal          184.58
4                              WGKLKQGE  native human ESRRG protein (Homo sapiens)  Sample A (Bkgd) Signal          209.10
5                              DINFSLGI  native human ESRRG protein (Homo sapiens)  Sample A (Bkgd) Signal          160.50

Query: I have this substance here, `NNNFSLHM` , and I need its recorded Sample A (Bkgd) Signal.
Reply: 199.94

Query: Field entry: `RLLHYGSY`
Reply: 290.67

Query: Consider next the substance `LILLQQLD` in the same way.
Reply: 177.10

Query: Can you check `LFKLKQDG` next?
Reply: 277.71

Query: Try this substance too: `PFKLKQGN`
Reply: 1,523.23
